Target: hERG channel (Homo sapiens, UniProt Q12809)
Construct: expressed in transfected cells
Sequence (Q12809 whole entry): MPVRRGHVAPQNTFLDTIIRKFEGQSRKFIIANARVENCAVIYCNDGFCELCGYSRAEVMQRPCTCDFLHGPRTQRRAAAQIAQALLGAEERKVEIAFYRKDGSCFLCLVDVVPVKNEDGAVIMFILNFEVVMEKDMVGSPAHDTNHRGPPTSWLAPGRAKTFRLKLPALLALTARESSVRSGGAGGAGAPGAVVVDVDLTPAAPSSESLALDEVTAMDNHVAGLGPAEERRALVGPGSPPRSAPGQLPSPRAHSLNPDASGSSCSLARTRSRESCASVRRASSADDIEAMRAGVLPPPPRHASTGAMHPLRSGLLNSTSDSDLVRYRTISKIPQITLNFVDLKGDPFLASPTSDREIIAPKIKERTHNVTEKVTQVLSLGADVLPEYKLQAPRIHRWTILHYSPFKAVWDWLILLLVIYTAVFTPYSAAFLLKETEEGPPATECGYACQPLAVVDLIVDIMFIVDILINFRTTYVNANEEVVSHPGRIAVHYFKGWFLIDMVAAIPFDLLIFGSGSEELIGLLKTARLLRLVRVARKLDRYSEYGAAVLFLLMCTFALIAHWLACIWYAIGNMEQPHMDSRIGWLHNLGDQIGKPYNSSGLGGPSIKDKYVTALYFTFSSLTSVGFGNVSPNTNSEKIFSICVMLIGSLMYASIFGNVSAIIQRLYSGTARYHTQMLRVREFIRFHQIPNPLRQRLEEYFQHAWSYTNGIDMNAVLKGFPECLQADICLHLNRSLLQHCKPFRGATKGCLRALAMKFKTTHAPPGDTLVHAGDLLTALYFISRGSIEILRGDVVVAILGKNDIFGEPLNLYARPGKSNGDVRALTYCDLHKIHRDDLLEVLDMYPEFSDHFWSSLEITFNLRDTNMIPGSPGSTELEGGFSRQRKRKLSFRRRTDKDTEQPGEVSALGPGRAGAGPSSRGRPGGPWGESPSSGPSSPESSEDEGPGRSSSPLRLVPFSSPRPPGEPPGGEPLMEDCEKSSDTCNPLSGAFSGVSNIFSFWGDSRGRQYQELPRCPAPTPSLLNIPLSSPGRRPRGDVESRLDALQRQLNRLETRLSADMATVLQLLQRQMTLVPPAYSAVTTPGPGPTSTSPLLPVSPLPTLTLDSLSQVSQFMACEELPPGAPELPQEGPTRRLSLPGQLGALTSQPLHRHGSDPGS
Experiment: hERG electrophysiology, automated whole-cell patch clamp (Patchliner)
Format: cell-based
Conditions: hERG channel, whole-cell patch clamp
Property Label: IC50

In [3]: df
Out[3]:
                                   compound  result_value
0  O=C1O[C@H]([C@@H](O)CO)[C@@H]2C[C@H](c3c(O)ccc(Cl)c3Cl)CN12 (single isomer, unassigned)       > 30 µM
1  CN(CCO)[C@H]1CC(=O)N2C[C@@H](c3c(O)ccc(Cl)c3Cl)C[C@H]2C1 (single isomer, unassigned)       > 30 µM
2  CC1(CN2CC(=O)N3C[C@@H](c4c(O)ccc(Cl)c4Cl)C[C@H]3C2)CNC1       > 30 µM

----------
Target: Kv1.3 potassium channel (Homo sapiens)
Construct: expressed in transfected cells
Sequence (P22001 whole entry): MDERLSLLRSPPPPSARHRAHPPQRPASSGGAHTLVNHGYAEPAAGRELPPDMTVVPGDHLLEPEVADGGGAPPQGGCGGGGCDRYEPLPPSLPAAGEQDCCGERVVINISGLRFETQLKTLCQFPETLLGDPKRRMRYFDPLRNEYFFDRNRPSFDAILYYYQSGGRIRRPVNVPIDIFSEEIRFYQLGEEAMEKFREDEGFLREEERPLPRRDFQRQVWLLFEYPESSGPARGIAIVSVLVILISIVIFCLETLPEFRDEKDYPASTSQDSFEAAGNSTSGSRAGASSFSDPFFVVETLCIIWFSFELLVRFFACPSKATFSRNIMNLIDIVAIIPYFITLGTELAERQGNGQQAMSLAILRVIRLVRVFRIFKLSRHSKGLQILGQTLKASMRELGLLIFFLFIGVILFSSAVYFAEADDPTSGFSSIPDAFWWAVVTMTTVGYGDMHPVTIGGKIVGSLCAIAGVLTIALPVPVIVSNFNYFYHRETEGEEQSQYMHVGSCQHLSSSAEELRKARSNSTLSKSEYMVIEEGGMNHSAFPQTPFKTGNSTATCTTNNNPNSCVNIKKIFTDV
Experiment: Kv1.3 potassium channel blocker activity, automated whole-cell patch clamp (Patchliner)
Format: cell-based
Settings: CHO-K1 cells stably expressing Kv1.3; 100 ms pulses from -90 mV to +40 mV, 0.1 Hz
Property Label: IC50

>>> df
                                   molecule  property_label  result_value
0  O=C1N[C@H](CO)CN2CC[C@@H](c3c(O)ccc(Cl)c3Cl)C[C@@H]12 [Compound 6]            IC50       < 10 µM
1  CO[C@H](CO)C(=O)N1CC(=O)N2CC[C@@H](c3c(O)ccc(Cl)c3Cl)C[C@H]2C1 [Compound 29]            IC50        < 1 µM
2  O=C1CN(CCO)C[C@@H]2C[C@H](c3c(O)ccc(Cl)c3Cl)CN12 [Compound 2]            IC50        < 1 µM
